Tested on: HeLa Kyoto
experiment-description: solubility change mitosis vs G1/S (difference of NP-40 vs SDS log2 ratios) (log2 ratio difference); higher = more soluble in mitosis
endpoint-name: solubility change mitosis (log2)
I'd appreciate a reply containing only the number, no unit.

Record MADYWKSQPKKFCDYCKCWIADNRPSVEFHERGKNHKENVAKRISEIKQKSLDKAKEEEKASKEFAAMEAAALKAYQEDLKRLGLESEILEPSITPVTSTIPPTSTSNQQKEKKEKKKRKKDPSKGRWVEGITSEGYHYYYDLISGASQWEKPEGFQGDLKKTAVKTVWVEGLSEDGFTYYYNTETGESRWEKPDDFIPHTSDLPSSKVNENSLGTLDESKSSDSHSDSDGEQEAEEGGVSTETEKPKIKFKEKNKNSDGGSDPETQKEKSIQKQNSLGSNEEKSKTLKKSNPYGEWQEIKQEVESHEEVDLELPSTENEYVSTSEADGGGEPKVVFKEKTVTSLGVMADGVAPVFKKRRTENGKSRNLRQRGDDQ [WBP4] ; system HeLa Kyoto; solubility change mitosis (log2) = 0.763

---

Consider the following sequences and their measured melting temperature readings.
System: HeLa Kyoto
experiment-description: melting temperature (median over replicates), in situ; higher = more thermally stable
assay-setup: cell cycle stage: G1/S
Write the number in °C without appending the unit.

# example entries with known answers
sequence-text: MAGMVDFQDEEQVKSFLENMEVECNYHCYHEKDPDGCYRLVDYLEGIRKNFDEAAKVLKFNCEENQHSDSCYKLGAYYVTGKGGLTQDLKAAARCFLMACEKPGKKSIAACHNVGLLAHDGQVNEDGQPDLGKARDYYTRACDGGYTSSCFNLSAMFLQGAPGFPKDMDLACKYSMKACDLGHIWACANASRMYKLGDGVDKDEAKAEVLKNRAQQLHKEQQKGVQPLTFG [COA7]
melting temperature [°C]: 52.9
--
sequence-text: MAAAWGSSLTAATQRAVTPWPRGRLLTASLGPQARREASSSSPEAGEGQIRLTDSCVQRLLEITEGSEFLRLQVEGGGCSGFQYKFSLDTVINPDDRVFEQGGARVVVDSDSLAFVKGAQVDFSQELIRSSFQVLNNPQAQQGCSCGSSFSIKL [ISCA2]
melting temperature [°C]: 51.6

Lookup result for MDRFVWTSGLLEINETLVIQQRGVRIYDGEEKIKFDAGTLLLSTHRLIWRDQKNHECCMAILLSQIVFIEEQAAGIGKSAKIVVHLHPAPPNKEPGPFQSSKNSYIKLSFKEHGQIEFYRRLSEEMTQRRWENMPVSQSLQTNRGPQPGRIRAVGIVGIERKLEEKRKETDKNISEAFEDLSKLMIKAKEMVELSKSIANKIKDKQGDITEDETIRFKSYLLSMGIANPVTRETYGSGTQYHMQLAKQLAGILQVPLEERGGIMSLTEVYCLVNRARGMELLSPEDLVNACKMLEALKLPLRLRVFDSGVMVIELQSHKEEEMVASALETVSEKGSLTSEEFAKLVGMSVLLAKERLLLAEKMGHLCRDDSVEGLRFYPNLFMTQS [VPS36] ; measured melting temperature: 51.6

---

Tested on: HeLa Kyoto
experiment-description: solubility in G1/S (NP-40 vs SDS abundance) (log2 ratio); higher = more soluble
assay-setup: cell cycle stage: G1/S
endpoint-name: solubility in G1/S (log2)
I'd appreciate a reply containing only the number, no unit.

# example entries with known answers
sequence-text: MSSRIARALALVVTLLHLTRLALSTCPAACHCPLEAPKCAPGVGLVRDGCGCCKVCAKQLNEDCSKTQPCDHTKGLECNFGASSTALKGICRAQSEGRPCEYNSRIYQNGESFQPNCKHQCTCIDGAVGCIPLCPQELSLPNLGCPNPRLVKVTGQCCEEWVCDEDSIKDPMEDQDGLLGKELGFDASEVELTRNNELIAVGKGSSLKRLPVFGMEPRILYNPLQGQKCIVQTTSWSQCSKTCGTGISTRVTNDNPECRLVKETRICEVRPCGQPVYSSLKKGKKCSKTKKSPEPVRFTYAGCLSVKKYRPKYCGSCVDGRCCTPQLTRTVKMRFRCEDGETFSKNVMMIQSCKCNYNCPHANEAAFPFYRLFNDIHKFRD [CYR61]
reading: -0.183
//
sequence-text: MGGLFWRSALRGLRCGPRAPGPSLLVRHGSGGPSWTRERTLVAVKPDGVQRRLVGDVIQRFERRGFTLVGMKMLQAPESVLAEHYQDLRRKPFYPALIRYMSSGPVVAMVWEGYNVVRASRAMIGHTDSAEAAPGTIRGDFSVHISRNVIHASDSVEGAQREIQLWFQSSELVSWADGGQHSSIHPA [NME4]
reading: 0.0944

Read the next record carefully.
Lookup result for MFIKGRAPRAPPRERRRATRGGLRQVVAPPRALGSTSRPHFRRASVCRRRCRKSGGLLAASRKMAAAAVNGAAGFSSSGPAATSGAVLQAATGMYEQLKGEWNRKSPNLSKCGEELGRLKLVLLELNFLPTTGTKLTKQQLILARDILEIGAQWSILRKDIPSFERYMAQLKCYYFDYKEQLPESAYMHQLLGLNLLFLLSQNRVAEFHTELERLPAKDIQTNVYIKHPVSLEQYLMEGSYNKVFLAKGNIPAESYTFFIDILLDTIRDEIAGCIEKAYEKILFTEATRILFFNTPKKMTDYAKKRGWVLGPNNYYSFASQQQKPEDTTIPSTELAKQVIEYARQLEMIV [PSMD8] ; measured solubility in G1/S (log2): 0.278
